Test: Drug metabolism in human intestinal microsomes assessed as T-5224 hydroxyl O-glucuronide formation after 10 to 60 mins by HPLC method
Assay type: ADME, Intestine, Microsome
VALUE_KIND: Km (µM)
Hi! Could you send only the number? It should be in µM, unit omitted.

Sure, the documented Km for O=C(O)CCc1cc(C(=O)c2ccc(OC3CCCC3)cc2O)ccc1OCc1ccc2c(O)noc2c1 is 3.06

====

Biological target: UDP-glucuronosyltransferase 1A1 (Homo sapiens)
Sequence (P22309 whole entry): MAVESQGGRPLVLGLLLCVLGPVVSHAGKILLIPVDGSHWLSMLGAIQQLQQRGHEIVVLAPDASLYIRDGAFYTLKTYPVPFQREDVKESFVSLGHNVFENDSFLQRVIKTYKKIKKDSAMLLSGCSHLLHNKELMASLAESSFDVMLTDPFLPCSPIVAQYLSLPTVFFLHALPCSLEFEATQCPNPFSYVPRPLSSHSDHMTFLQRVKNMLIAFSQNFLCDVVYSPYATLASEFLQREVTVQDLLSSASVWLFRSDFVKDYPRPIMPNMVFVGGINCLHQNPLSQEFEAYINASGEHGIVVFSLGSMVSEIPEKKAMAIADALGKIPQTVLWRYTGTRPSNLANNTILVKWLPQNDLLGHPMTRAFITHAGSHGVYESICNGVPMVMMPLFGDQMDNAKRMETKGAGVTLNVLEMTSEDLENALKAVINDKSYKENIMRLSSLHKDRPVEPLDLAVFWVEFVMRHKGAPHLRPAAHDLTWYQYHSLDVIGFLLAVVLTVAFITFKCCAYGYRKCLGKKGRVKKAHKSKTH
Experiment: Substrate inhibition of human UGT1A1-mediated T-5224 hydroxyl O-glucuronide formation after 10 to 60 mins in presence of UDP-glucuronic acid by HPLC method
Format: ADME
VALUE_KIND: Ki (µM)
Hi! Could you send only the number? It should be in µM, unit omitted.

Sure, the documented Ki for O=C(O)CCc1cc(C(=O)c2ccc(OC3CCCC3)cc2O)ccc1OCc1ccc2c(O)noc2c1 is 4.67

====

Target: UDP-glucuronosyltransferase 1A3 (Homo sapiens)
Sequence (P35503 whole entry): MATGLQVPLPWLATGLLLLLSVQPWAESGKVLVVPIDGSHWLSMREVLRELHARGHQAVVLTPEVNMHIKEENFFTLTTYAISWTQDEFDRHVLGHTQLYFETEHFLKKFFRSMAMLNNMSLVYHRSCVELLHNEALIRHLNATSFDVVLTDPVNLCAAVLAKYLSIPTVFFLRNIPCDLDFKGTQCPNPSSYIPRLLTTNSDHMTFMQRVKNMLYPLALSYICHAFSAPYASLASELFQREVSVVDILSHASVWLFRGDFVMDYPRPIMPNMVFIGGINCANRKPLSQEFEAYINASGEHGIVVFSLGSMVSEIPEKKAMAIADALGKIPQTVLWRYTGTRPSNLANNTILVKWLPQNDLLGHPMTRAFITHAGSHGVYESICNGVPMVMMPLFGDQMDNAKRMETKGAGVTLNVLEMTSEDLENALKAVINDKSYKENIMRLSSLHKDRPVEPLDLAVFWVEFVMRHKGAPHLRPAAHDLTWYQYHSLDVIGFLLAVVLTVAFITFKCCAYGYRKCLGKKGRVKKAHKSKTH
Assay: Substrate inhibition of human UGT1A3-mediated T-5224 acyl O-glucuronide formation after 10 to 60 mins in presence of UDP-glucuronic acid by HPLC method
Assay type: ADME
VALUE_KIND: Ki (µM)
Hi! Could you send only the number? It should be in µM, unit omitted.

Sure, the documented Ki for O=C(O)CCc1cc(C(=O)c2ccc(OC3CCCC3)cc2O)ccc1OCc1ccc2c(O)noc2c1 is 13.5

====

Biological target: Liver microsome
Experiment: Substrate inhibition of T-5224 hydroxyl O-glucuronide formation in human liver microsomes after 10 to 60 mins by HPLC method
VALUE_KIND: Ki
Field: value (include unit after the number)

Sure, the documented Ki for O=C(O)CCc1cc(C(=O)c2ccc(OC3CCCC3)cc2O)ccc1OCc1ccc2c(O)noc2c1 is 27 µM

====

Test system: Liver microsome
Test: Drug metabolism in human liver microsomes assessed as T-5224 hydroxyl O-glucuronide formation after 10 to 60 mins by HPLC method
Type: ADME
VALUE_KIND: Km (µM)
Hi! Could you send only the number? It should be in µM, unit omitted.

Sure, the documented Km for O=C(O)CCc1cc(C(=O)c2ccc(OC3CCCC3)cc2O)ccc1OCc1ccc2c(O)noc2c1 is 15.7

====

Assay: Drug metabolism in human intestinal microsomes assessed as T-5224 acyl O-glucuronide formation after 10 to 60 mins by HPLC method
Format: ADME, Intestine, Microsome
VALUE_KIND: Km
Field: value (include unit after the number)

Sure, the documented Km for O=C(O)CCc1cc(C(=O)c2ccc(OC3CCCC3)cc2O)ccc1OCc1ccc2c(O)noc2c1 is 5.88 µM

====

Target: Liver microsome
Assay: Substrate inhibition of T-5224 acyl O-glucuronide formation in human liver microsomes after 10 to 60 mins by HPLC method
VALUE_KIND: pKi
Answer as the number alone; pKi is minus log10 of concentration in mol/L.

Sure, the documented pKi for O=C(O)CCc1cc(C(=O)c2ccc(OC3CCCC3)cc2O)ccc1OCc1ccc2c(O)noc2c1 is 4.88

====

Assay: Substrate inhibition of T-5224 hydroxyl O-glucuronide formation in human intestinal microsomes after 10 to 60 mins by HPLC method
Parameters: species or system Intestine, Microsome
VALUE_KIND: Ki (µM)
Hi! Could you send only the number? It should be in µM, unit omitted.

Sure, the documented Ki for O=C(O)CCc1cc(C(=O)c2ccc(OC3CCCC3)cc2O)ccc1OCc1ccc2c(O)noc2c1 is 58
